# assay method text: Immersion test: binding / wash-out of photocatalysts from SolGel coatings (1 h deionised water, UV-VIS signal loss)
# Type: physicochemical
# setup conditions: Rezeptur 5 coating on glass, dye 10 bis 40 mM; 1 h deionised water pH 6 ± 1, 22 ± 3 °C; relative UV-VIS signal loss at absorption maximum
outcome measure: Verlust durch Auswaschen (%)
Please give a number only; it is taken to be in %.

Consider the worked cases shown below.
COCCC1=Cc2nc1ccc1[nH]c(cc1CCOC)c1nc(c(OCCCO)cc3[nH]c2cc3CCOC)C(CCOC)=C1 [S-61a]    6
COCCC1=Cc2nc1ccc1[nH]c(cc1CCOC)c1nc(c(OCCCN)cc3[nH]c2cc3CCOC)C(CCOC)=C1 [S-62]    3
CC(=O)OCCC1=Cc2nc1ccc1[nH]c(cc1CCOC(C)=O)c1nc3c(cc4[nH]c2cc4CCOC(C)=O)OCCC3=C1 [S-60b]    2

Here's the next entry for you.
Could you share which Verlust durch Auswaschen value was measured for NCCCOC1=CC(=O)c2cccc3cccc1c23 [S-08] ?
13
